molecular target: Aldo-keto reductase family 1 member B1 (Homo sapiens, UniProt P15121); assay: Inhibition of aldose reductase (aldo-keto reductase, AKR1B1) isolated from human placenta.
Entries annotated with measured log10 IC50
Recorded IC50 (log10, µM)

Study these solved cases before continuing.
O=C(O)Cc1nn(Cc2nc3c(ccc4ccccc43)s2)c(=O)c2ccc(Cl)cc12 = -0.52
COc1cc2sc(Cn3nc(CC(=O)O)c4ccccc4c3=O)nc2cc1C(F)(F)F = 0.63
O=C(O)Cc1nn(Cc2nc3c(Cl)c(Cl)ccc3s2)c(=O)c2ccccc12 = -1.00

Consider the compound O=C(O)Cc1nn(Cc2nc3cc(O)ccc3s2)c(=O)c2ccccc12 and give its measured log10 IC50.
-1.39

Please report the recorded log10 IC50 for O=C1NC(=O)C2(CN(Cc3ccc(F)cc3)c3ccc(F)cc32)N1 (stereo unspecified) .
-0.85

log10 IC50 for O=C(O)Cc1nn(Cc2nc3cc(Cl)cc(C(F)(F)F)c3s2)c(=O)c2ccccc12 ?
-0.21

Fill in: log10 IC50 of O=C(O)Cc1nn(Cc2nc3ccc(Br)cc3s2)c(=O)c2ccccc12 is ___
-1.59

Fill in: log10 IC50 of O=C(O)Cc1nn(Cc2nc3c(Cl)cccc3s2)c(=O)c2ccccc12 is ___
-2.46

Record request: log10 IC50 value, item COc1cc(C(F)(F)F)c2sc(Cn3nc(CC(=O)O)c4ccccc4c3=O)nc2c1
-0.18

Item under review: O=C(O)Cc1nn(Cc2nc3c(ccc4ccccc43)s2)c(=O)c2ccccc12 . Reported log10 IC50?
-0.29

Param item = O=C(O)Cc1nn(Cc2nc3cc(C(F)(F)F)cc(F)c3s2)c(=O)c2ccccc12 ; retrieve measured log10 IC50.
-1.77
